tested on: NCI-H226 lung; experiment: NCI tumour cell line growth inhibition, 48 h

{"columns": ["Compound", "Measured Target", "TGI"],
 "data": [
  ["Cc1cc(N(CCC#N)CCC#N)ccc1/C=C1/N=C(c2ccccc2)N(N)C1=O", "NCI-H226 lung", "> 100 µM"],
  ["COc1ccc(C(=O)N2c3ccccc3Sc3ccccc32)c(OC)c1", "NCI-H226 lung", "> 100 µM"],
  ["Cc1ccc(S(=O)(=O)NCCSCCSCCNS(=O)(=O)c2ccc(C)cc2)cc1", "NCI-H226 lung", "> 100 µM"],
  ["CCCCCCN(N)C(=O)CC#N", "NCI-H226 lung", "> 100 µM"],
  ["Nc1nc(Cl)c(N)c(NCC2(CO)CC(CCCc3ccccc3)C2)n1 (stereo not given)", "NCI-H226 lung", "> 63.7 µM"]
]}

----------
tested on: SK-MEL-2 melanoma; assay: NCI tumour cell line growth inhibition, 48 h
Quick reference for TGI among some compounds
Assay Metric: TGI (µM)

{"columns": ["Compound", "Obs Value"],
 "data": [
  ["O=[N+]([O-])c1cc(S(=O)(=O)Oc2ccccc2)ccc1Cl", 26.1],
  ["COc1ccc(C2[C@@H](Cl)C(=O)N2c2cc(OC)c(OC)c(OC)c2)cc1Cl (stereo partly drawn)", 22.5],
  ["O=C1NC(=O)C(c2cccc(Cl)c2)=C1Nc1ccc(O)c(Cl)c1", 22.5]
]}

----------
Quick reference for TGI among some compounds
test system: KM12 colon; assay: NCI tumour cell line growth inhibition, 48 h

{"columns": ["Compound", "Measured Target", "TGI"],
 "data": [
  ["CC(C)(C)c1ccc(C(=O)Nc2sc3c(c2C(N)=O)CCC(=O)C3)cc1", "KM12 colon", "2.34 µM"],
  ["Cc1ccc(C2=Nc3ccccc3SC(c3cccc([N+](=O)[O-])c3)C2)cc1 (stereo unspecified)", "KM12 colon", "36.8 µM"],
  ["COC(CN1C=C(Sc2ccccc2)CC1)OC", "KM12 colon", "67.8 µM"],
  ["CC1(C)OCC(C(O)C2OC(C)(C)OC2/C=N\\O)O1 (stereo unspecified)", "KM12 colon", "> 100 µM"],
  ["COC(=O)c1c(O)ccc2c1C1(Cc3ccccc3C1=O)C(O)O2 (stereo unspecified)", "KM12 colon", "69.1 µM"],
  ["O=C(N/N=C/c1cc(Cl)cc(Cl)c1O)c1ccccc1O", "KM12 colon", "34.7 µM"]
]}

----------
test system: NCI-H23 lung; test: NCI tumour cell line growth inhibition, 48 h

{"columns": ["Compound", "Measured Target", "Unit Spec", "Bound Operator", "TGI"],
 "data": [
  ["COC(=O)c1c(OC(C)=O)ccc2c1c1c(OC(C)=O)c3ccccc3c(OC(C)=O)c1n2Cc1ccccc1", "NCI-H23 lung", "µM", "=", 18.3],
  ["CN(CC(N)=O)C(=O)N(CCCl)N=O", "NCI-H23 lung", "µM", ">", 100],
  ["Cc1ccc(/C=C2\\CCCC(CN3CCCCC3)C2=O)cc1 (stereo not given)", "NCI-H23 lung", "µM", "=", 4.86],
  ["COc1cc([C@@H]2c3cc(O)c(OC)cc3C=C(C(N)=O)[C@H]2C(N)=O)ccc1O", "NCI-H23 lung", "µM", ">", 100],
  ["COCCOCOc1ccc(OCOCCOC)c2c1C(=O)c1ccccc1C2=O", "NCI-H23 lung", "µM", ">", 100],
  ["N#CN1CC[C@H](C(=O)Nc2ncc(-c3ccncc3)s2)C1", "NCI-H23 lung", "µM", "=", 3.44],
  ["CCOC(=O)C(=O)Nc1cc(Cl)ccc1Cl", "NCI-H23 lung", "µM", ">", 100],
  ["CC1(C)OCC(C(O)C2OC(C)(C)OC2/C=N\\O)O1 (stereo not given)", "NCI-H23 lung", "µM", ">", 100],
  ["CC(C)C1=CC23CCC4C(C)(C(=O)O)CCCC4(C)C2CC1C1C(=O)N(c2ccc(C(=O)O)cc2)C(=O)C13 (stereo not given)", "NCI-H23 lung", "µM", ">", 100],
  ["CC(C)(C)OC(=O)NCCC1CN(C(=O)c2ccccc2)c2ccccc21 (stereo not given)", "NCI-H23 lung", "µM", "=", 88.8]
]}
